Reference for the values: ChEMBL document CHEMBL1155877

Entries and their GI50 values follow.
- Test system: SF-539
- method: Antiproliferative activity against human SF539 cells
- Type: functional

[
  {
    "compound": "CN1CCN(Cc2c3c(nc4ccccc24)-c2cc4ccccc4c(=O)n2C3)CC1",
    "comparator": "=",
    "GI50 / µM": 1.8
  },
  {
    "compound": "O=c1c2ccccc2cc2n1Cc1c-2nc2ccccc2c1CN1CC[C@H](O)C1",
    "comparator": "=",
    "GI50 / µM": 5.4
  },
  {
    "compound": "COc1cc2c3c(n(C)c(=O)c2cc1OC)-c1cc2c(cc1C3=O)OCO2",
    "comparator": "=",
    "GI50 / µM": 41
  },
  {
    "compound": "O=c1c2ccccc2cc2n1Cc1c-2nc2ccccc2c1CNCCO",
    "comparator": "=",
    "GI50 / µM": 3.9
  },
  {
    "compound": "O=c1c2ccccc2cc2n1Cc1c-2nc2ccccc2c1CCCN1CCOCC1",
    "comparator": "=",
    "GI50 / µM": 3.5
  },
  {
    "compound": "O=c1c2ccccc2cc2n1Cc1c-2nc2ccccc2c1CCl",
    "comparator": "=",
    "GI50 / µM": 7.4
  },
  {
    "compound": "COc1cc2c3c(n(CCCNCCO)c(=O)c2cc1OC)-c1cc2c(cc1C3=O)OCO2 [LMP-744]",
    "comparator": "=",
    "GI50 / µM": 0.04
  },
  {
    "compound": "O=c1c2ccccc2cc2n1Cc1c-2nc2ccccc2c1Cn1ccnc1",
    "comparator": "=",
    "GI50 / µM": 4.7
  },
  {
    "compound": "O=c1c2ccccc2cc2n1Cc1c-2nc2ccccc2c1CCCNCCO",
    "comparator": "=",
    "GI50 / µM": 12.9
  },
  {
    "compound": "O=c1c2ccccc2cc2n1Cc1c-2nc2ccccc2c1CCCn1ccnc1",
    "comparator": "=",
    "GI50 / µM": 0.74
  },
  {
    "compound": "CN(C)Cc1c2c(nc3ccccc13)-c1cc3ccccc3c(=O)n1C2",
    "comparator": ">",
    "GI50 / µM": 100
  },
  {
    "compound": "COc1cc2cc3n(c(=O)c2cc1OC)Cc1cc2ccccc2nc1-3 [DIMETHOXYAROMATHECIN]",
    "comparator": ">",
    "GI50 / µM": 100
  },
  {
    "compound": "NCc1c2c(nc3ccccc13)-c1cc3ccccc3c(=O)n1C2",
    "comparator": "=",
    "GI50 / µM": 4.9
  },
  {
    "compound": "CC[C@@]1(O)C(=O)OCc2c1cc1n(c2=O)Cc2cc3ccccc3nc2-1 [CAMPTOTHECIN]",
    "comparator": "=",
    "GI50 / µM": 0.01
  },
  {
    "compound": "O=c1c2ccccc2cc2n1Cc1c-2nc2ccccc2c1CNCCCn1ccnc1",
    "comparator": "=",
    "GI50 / µM": 3.8
  }
]
